Catalogue of pIC50 values
# TEST_METHOD_NOTES: Cytotoxicity against human A590 cells measured after 48 hrs by CCK8 assay
# Assay type: functional, cell-based
pIC50: −log10 of the molar value.
REPORTED_ENDPOINT: pIC50

[[record]]
item_smiles = "C/C(=N/NC(=N)N)c1cn(S(=O)(=O)c2ccc(C)cc2)c2ccccc12"
reported_result = 5.57

[[record]]
item_smiles = "N=C(N)N/N=C\\c1cn(S(=O)(=O)c2ccccc2)c2ccc(Br)cc12"
reported_result = 4.83

[[record]]
item_smiles = "CC/C(=N/NC(=N)N)c1cn(S(=O)(=O)c2ccc(C)cc2)c2ccc(Br)cc12"
reported_result = 5.63

